Target: T1, Pex13, P80667
T1 sequence (P80667 295-386, looked up): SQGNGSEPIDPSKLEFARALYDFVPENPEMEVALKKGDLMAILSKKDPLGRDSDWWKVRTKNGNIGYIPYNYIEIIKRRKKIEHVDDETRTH
Assay: SPOT array
Conditions: median of control spots 1341
Assay Endpoint: SPOT intensity
Number only, no unit.

Before answering, review these 2 worked examples.
NENKKLPPAPTVFGL | 9
AKDLIVPRRPEWNEG | 567

Turning to the following binder.
[in] Item under review: `PELAPKREAPKPPAN` . Reported SPOT intensity?
[out] 0
